System: LOC_OS04G41100-cb001
Sequence (as listed by the source): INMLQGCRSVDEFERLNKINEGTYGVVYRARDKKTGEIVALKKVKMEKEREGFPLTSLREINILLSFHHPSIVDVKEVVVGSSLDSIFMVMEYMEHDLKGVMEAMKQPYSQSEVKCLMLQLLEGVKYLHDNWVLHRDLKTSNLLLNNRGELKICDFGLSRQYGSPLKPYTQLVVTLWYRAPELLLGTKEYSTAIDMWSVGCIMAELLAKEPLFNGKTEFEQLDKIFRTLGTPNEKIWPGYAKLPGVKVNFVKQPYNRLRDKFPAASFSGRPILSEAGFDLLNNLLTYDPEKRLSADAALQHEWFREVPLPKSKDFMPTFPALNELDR
Assay: thermal shift delta Tm vs DMSO control; higher = stronger stabilization (binding);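 further: purified Escherichia coli-expressed rice kinase domain construct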
Settings: 12.5 µM; protein concentration 2 µM
Structures can show the parent of a compound that is named as a salt.
ENDPOINT_NAME: thermal shift delta Tm (°C)

[[record]]
molecule = "Cn1cc(/C=C2\\C(=O)Nc3cccnc32)c2ccccc21"
value_unit = "°C"
measured_number = 0.74

[[record]]
molecule = "CCc1cccc(CC)c1NC(=O)N1Cc2[nH]nc(NC(=O)c3ccc(N4CCN(C)CC4)cc3)c2C1"
value_unit = "°C"
measured_number = 0.62

[[record]]
molecule = "C[C@H](NC(=O)c1c(N)nn2cccnc12)c1cc2cccc(C#Cc3cnn(C)c3)c2c(=O)n1-c1ccccc1"
value_unit = "°C"
measured_number = 0.04

[[record]]
molecule = "CCCCCCCCCCCCCCCCn1cc[n+](Cc2ccccc2)c1C"
value_unit = "°C"
measured_number = -1.35

[[record]]
molecule = "COc1cc(Nc2ncc(F)c(Nc3ccc4c(n3)NC(=O)C(C)(C)O4)n2)cc(OC)c1OC"
value_unit = "°C"
measured_number = 0.74

[[record]]
molecule = "CC(C)NC(=O)COc1cccc(-c2nc(Nc3ccc4[nH]ncc4c3)c3ccccc3n2)c1"
value_unit = "°C"
measured_number = 0.68

[[record]]
molecule = "CCCCCCCCCC(=O)CC(O)S(=O)(=O)O (stereo unspecified) [Sodium Houttuyfonate]"
value_unit = "°C"
measured_number = 0.45

[[record]]
molecule = "CCCCCCCCCCCCCCCCOP(=O)([O-])OCC[N+](C)(C)C [Miltefosine]"
value_unit = "°C"
measured_number = -0.66

[[record]]
molecule = "CN1CCN(c2ccc(C(=O)Nc3n[nH]c4ccc(Cc5cc(F)cc(F)c5)cc34)c(NC3CCOCC3)c2)CC1 [Entrectinib (RXDX-101)]"
value_unit = "°C"
measured_number = 0.77

[[record]]
molecule = "CCCCCCCCCCCCc1ccc(S(=O)(=O)Nc2nncs2)cc1"
value_unit = "°C"
measured_number = 0.45

[[record]]
molecule = "CN1CCN(c2ccc3nc(-c4c(N)c5c(F)cccc5[nH]c4=O)[nH]c3c2)CC1 [Dovitinib (TKI258) Lactate]"
value_unit = "°C"
measured_number = 1.24

[[record]]
molecule = "COc1ccc(S(=O)(=O)N(CCO)c2ccccc2CN(C)C/C=C/c2ccc(Cl)cc2)cc1 [KN-93 Phosphate]"
value_unit = "°C"
measured_number = 0.58

[[record]]
molecule = "Cc1cccc(CC(=O)N2CCc3c2ccc(-c2cn(C)c4ncnc(N)c24)c3F)n1"
value_unit = "°C"
measured_number = 0.27

[[record]]
molecule = "FC(F)(F)c1ccc(CNc2ccc(Cc3c[nH]c4ncc(Cl)cc34)cn2)cn1 [Pexidartinib (PLX3397)]"
value_unit = "°C"
measured_number = 0.51

[[record]]
molecule = "CNC(=O)c1ccc(C)c(-n2c(C)cc(OCc3ccc(F)cc3F)c(Br)c2=O)c1"
value_unit = "°C"
measured_number = 0.73

[[record]]
molecule = "Cc1ccc(C(=O)Nc2cccc(C(F)(F)F)c2)cc1Nc1nc(-c2cccnc2)nc2c1cnn2C"
value_unit = "°C"
measured_number = 0.58

[[record]]
molecule = "C#Cc1cccc(Nc2ncnc3cc(OCCOC)c(OCCOC)cc23)c1 [Erlotinib]"
value_unit = "°C"
measured_number = -0.05

[[record]]
molecule = "Cc1cn(-c2cc(NC(=O)c3ccc(C)c(Nc4nccc(-c5cnccn5)n4)c3)cc(C(F)(F)F)c2)cn1 [Radotinib]"
value_unit = "°C"
measured_number = 0.41

[[record]]
molecule = "CC1Oc2cc(cnc2N)-c2c(nn(C)c2C#N)CN(C)C(=O)c2ccc(F)cc21 (stereo unspecified)"
value_unit = "°C"
measured_number = 0.38

[[record]]
molecule = "CS(=O)(=O)N1CCc2c(-c3cnc(N)nc3)nc(N3CCOCC3)nc21"
value_unit = "°C"
measured_number = 0.14

[[record]]
molecule = "Cc1c(NC(=O)OC[C@@H]2COCCN2)cn2ncnc(Nc3ccc4c(cnn4Cc4cccc(F)c4)c3)c12"
value_unit = "°C"
measured_number = 0.82

[[record]]
molecule = "O=C1Nc2ccc(CN3C(=O)CSC3=O)cc2/C1=C/c1cc(CN2CCOCC2)c[nH]1"
value_unit = "°C"
measured_number = 0.46

[[record]]
molecule = "COc1nccnc1NS(=O)(=O)c1ccc(NC(=O)/C=C/c2ccc([N+](=O)[O-])s2)cc1 [Necrosulfonamide]"
value_unit = "°C"
measured_number = -0.12

[[record]]
molecule = "O=C(Nc1cccnc1)c1cc(-c2ccnc(F)c2)ccc1OCc1ccccc1"
value_unit = "°C"
measured_number = 0.25

[[record]]
molecule = "CC#CC(=O)N1CC[C@@H](n2c(=O)n(-c3ccc(Oc4ccccc4)cc3)c3c(N)ncnc32)C1 [ONO-4059 (GS-4059) hydrochloride]"
value_unit = "°C"
measured_number = 0.03

[[record]]
molecule = "CC(C)(C)c1nc(-c2ccc(NC(=O)Nc3cccc(C(F)(F)F)c3)c3ccccc23)c2c(N)nccn12 [kira6]"
value_unit = "°C"
measured_number = -0.01

[[record]]
molecule = "FC(F)c1nc2ccccc2n1-c1nc(N2CCOCC2)nc(N2CCOCC2)n1"
value_unit = "°C"
measured_number = 0.9

[[record]]
molecule = "Cc1ccc(Nc2cc(N[C@@H]3CCCC[C@@H]3N)nnc2C(N)=O)nc1C"
value_unit = "°C"
measured_number = 0.51

[[record]]
molecule = "CC(C)S(=O)(=O)c1ccc2nccc(Nc3ccc4scnc4c3)c2c1"
value_unit = "°C"
measured_number = 0.32

[[record]]
molecule = "Cc1[nH]c(/C=C2\\C(=O)Nc3ccccc32)c(C)c1CCC(=O)O [Orantinib (TSU-68, SU6668)]"
value_unit = "°C"
measured_number = 0.53

[[record]]
molecule = "O=C(Nc1nccs1)C(c1cc(F)ccc1O)N1Cc2ccccc2C1=O (stereo unspecified)"
value_unit = "°C"
measured_number = 0.1


====

Test system: LOC_OS07G06570-cb004
Experiment: thermal shift delta Tm vs DMSO control; higher = stronger stabilization (binding)
Conditions: 12.5 µM; protein concentration 2 µM
ENDPOINT_NAME: thermal shift delta Tm

[[record]]
molecule = "Nc1cc(C(F)(F)F)c(-c2cc(N3CCOCC3)nc(N3CCOCC3)n2)cn1"
tested_target = "LOC_OS07G06570-cb004"
result = "0.64 °C"

[[record]]
molecule = "Cc1c[nH]c2nc(Nc3ccc(N4CCN(C)CC4)c(F)c3)nc(-c3cccc(CC#N)c3)c12"
tested_target = "LOC_OS07G06570-cb004"
result = "2.22 °C"

[[record]]
molecule = "CC(=O)c1c(C)c2cnc(Nc3ccc(N4CCNCC4)cn3)nc2n(C2CCCC2)c1=O"
tested_target = "LOC_OS07G06570-cb004"
result = "0.7 °C"

[[record]]
molecule = "C=CC(=O)Nc1cccc(Oc2nc(Nc3ccc(N4CCN(C)CC4)cc3OC)ncc2Cl)c1"
tested_target = "LOC_OS07G06570-cb004"
result = "0.31 °C"


====

Attribute: thermal shift delta Tm
Test system: LOC_OS03G04050-cb001
Assay: thermal shift delta Tm vs DMSO control; higher = stronger stabilization (binding)
Settings: 12.5 µM; protein concentration 2 µM
Structures can show the parent of a compound that is named as a salt.
ENDPOINT_NAME: thermal shift delta Tm (°C)

[[record]]
molecule = "Cc1ccc(NC(=O)c2cccc(C(C)(C)C#N)c2)cc1Nc1ccc2ncn(C)c(=O)c2c1"
tested_target = "LOC_OS03G04050-cb001"
measured_number = 0.45

[[record]]
molecule = "COc1cc(OC)c(/C=C/S(=O)(=O)Cc2ccc(OC)c(NCC(=O)O)c2)c(OC)c1"
tested_target = "LOC_OS03G04050-cb001"
measured_number = 0.35

[[record]]
molecule = "Cc1cc(O)c(-c2ccc([C@@H](C)CN)cc2)c2c1[nH]c(=O)c1sccc12 [OTS514 hydrochloride]"
tested_target = "LOC_OS03G04050-cb001"
measured_number = 0.44

[[record]]
molecule = "CCn1c(=O)c(-c2cc[nH]n2)cc2c(C)nc(N)nc21"
tested_target = "LOC_OS03G04050-cb001"
measured_number = 0.35

[[record]]
molecule = "CNc1nc(-c2ccc3c(N)n[nH]c3c2)cc(N2C[C@@H](C(=O)NC3CCCCC3)CC[C@H]2C)n1"
tested_target = "LOC_OS03G04050-cb001"
measured_number = 0.58

[[record]]
molecule = "Oc1cc(O)cc(/C=C/c2ccc(O)c(O)c2)c1 [Piceatannol]"
tested_target = "LOC_OS03G04050-cb001"
measured_number = 0.78

[[record]]
molecule = "Nc1ncc(-c2ccnc(Nc3ccncc3)n2)c(CC2CC2)n1"
tested_target = "LOC_OS03G04050-cb001"
measured_number = 0.08

[[record]]
molecule = "CC(C)[C@H](CO)Nc1nc(Nc2cccc(Cl)c2)c2ncn(C(C)C)c2n1 [Purvalanol A]"
tested_target = "LOC_OS03G04050-cb001"
measured_number = 0.15

